Where do the numbers come from? From ChEMBL document CHEMBL3877243.

assay: Aqueous solubility of the compound at 100 ug/ml incubated for 1 hr; type: physicochemical; details: buffer

structure smiles	solubility at 1 h (µg/mL)
C=C(C)[C@@H]1CC[C@]2(C(=O)O)CC[C@]3(C)[C@H](CC[C@@H]4[C@@]5(C)CC[C@H](O)C(C)(C)[C@@H]5CC[C@]43C)[C@@H]12	0.02

---

experiment: Cytotoxicity against MDCK cells measured after 48 hrs by alamar blue assay; format: toxicity, cell-based, Canis lupus familiaris; conditions: dog
reported metric: CC50 at 48 h (µM)

structure smiles	reported metric	relation sign	value reported
CC1(C)CC[C@]2(C(=O)O)[C@H](O)C[C@]3(C)C(=CC[C@@H]4[C@@]5(C)CC[C@H](O)C(C)(C)[C@@H]5CC[C@]43C)[C@@H]2C1	CC50 at 48 h	=	15.4
CC1(C)CC[C@]2(C(=O)NCc3cn(C[C@H]4O[C@@H]5O[C@H]6[C@H](O)[C@@H](O)[C@@H](O[C@H]7[C@H](O)[C@@H](O)[C@@H](O[C@H]8[C@H](O)[C@@H](O)[C@@H](O[C@H]9[C@H](O)[C@@H](O)[C@@H](O[C@H]%10[C@H](O)[C@@H](O)[C@@H](O[C@H]4[C@H](O)[C@H]5O)O[C@@H]%10CO)O[C@@H]9CO)O[C@@H]8CO)O[C@@H]7CO)O[C@@H]6CO)nn3)[C@H](O)C[C@]3(C)C(=CC[C@@H]4[C@@]5(C)CC[C@H](O)C(C)(C)[C@@H]5CC[C@]43C)[C@H]2C1	CC50 at 48 h	>	100
